Data provenance: ChEMBL document CHEMBL1201862

Catalogue of GI50 readings, one per entry.
- System: MCF7
- Protocol notes: NCI tumour cell line growth inhibition, 48 h
The source made the active and inactive calls. Rule as the data show it: active = GI50 up to about 1.1 µM and inactive = higher.

# Compound, GI50
rows = [
    ("O=C(N/N=C/c1ccc([N+](=O)[O-])cc1)c1cccc2nc3ccccc3nc12", "> 100 µM (inactive)"),
    ("O=C1C(F)=CC(COC(c2ccccc2)(c2ccccc2)c2ccccc2)OC1n1cc(F)c(=O)[nH]c1=O (stereo not drawn)", "2.07 µM (inactive)"),
    ("O[C@@H]1C=C[C@]23CCN(Cc4cc5c(cc42)OCO5)[C@@H]3C1", "52.1 µM (inactive)"),
    ("N=c1oc2ccccc2cc1C(=O)NC12CC3CC(CC(C3)C1)C2", "3.7 µM (inactive)"),
    ("O=C1C=C(Nc2ccc(Br)cc2)c2ccccc2/C1=N/O", "4.16 µM (inactive)"),
]

// map `C1CSC[C@H]2COC[C@@H](CSCCS1)S2` to recorded GI50 (system: MCF7)
> 100 µM (inactive)

Then `O=c1c(C(c2ccc3ccccc3c2)c2c(O)oc3ccccc3c2=O)c(O)oc2ccccc12` ?
37.1 µM (inactive)

Similarly, `COc1cc(S(=O)(=O)Nc2ccc(-c3csc(/N=C\c4cccc(Oc5ccccc5)c4)n3)cc2)ccc1Cl` ?
5.2 µM (inactive)
